Ref: ChEMBL document CHEMBL1201862

Test system: OVCAR-8
Test: NCI tumour cell line growth inhibition, 48 h
Active and inactive are the calls of the source. Rule as the data show it: active = GI50 up to about 1.1 µM and inactive = higher.
MEASUREMENT LABEL: GI50

# molecule CCC1C2Cc3ccc(O)cc3C1(CC)CCN2C (stereo unspecified) ; its GI50 = > 100 µM (inactive)

The recorded GI50 for `C[n+]1c2ccccc2c(C(=O)Nc2ccc(S(=O)(=O)N=C(N)N)cc2)c2ccccc21` is > 100 µM (inactive)

Summary for this molecule, `CCOC(=O)C1(C(=O)OCC)COS(=O)OC1` : GI50 is 45.1 µM (inactive)

Record O=C(CO)C1CC2C=CC1C2 (stereo unspecified) . Reported GI50: > 100 µM (inactive)

Lab book: GI50 of NC1OC(COC(=O)c2ccccc2)C(O)C(OC(=O)c2ccccc2)C1OC(=O)c1ccccc1 (stereo unspecified) noted as 17.9 µM (inactive)

The value of GI50 measured for the molecule CC(=O)[C@@]1(C)CC2(CCN(C)CC2)OC1C (stereo partly specified) turned out to be > 100 µM (inactive)

---

Answer each item with its documented GI50.
System: SR
Assay: NCI tumour cell line growth inhibition, 48 h
Calls of active or inactive are those of the source. Rule as the data show it: active = GI50 up to about 1.1 µM and inactive = higher.

The value of GI50 measured for the molecule `O=C1[C@H](Cl)[C@H]2c3cc4ccccc4nc3Oc3ccccc3N12` turned out to be 20.9 µM (inactive)

The value of GI50 measured for the molecule `COc1ccc2c(c1)CCc1c(-c3noc4c3CCc3cc(OC)ccc3-4)noc1-2` turned out to be > 100 µM (inactive)

Summary for this molecule, CCOC(=O)CC1CCN(C(=O)c2ccccc2)C2Cc3c([nH]c4ccccc34)C12C[N+](=O)[O-] (stereo not given) : GI50 is 39.8 µM (inactive)

In plain terms, O=C1CC(c2cccc(Br)c2)n2cccc21 (stereo not given) has a documented GI50 of 51.2 µM (inactive)

`Cc1cccc2c1C(=O)OC2(c1cccc2ccccc12)c1cccc2ccccc12` yielded GI50 of > 100 µM (inactive)

Sure, the documented GI50 for CCCCC(=C=C(C)CO)C1CCCN1C(=O)OC(C)(C)C (stereo not given) is 15.1 µM (inactive)

GI50 measured on `C/C(=C1/N=C(c2cc([N+](=O)[O-])ccc2Cl)N(C2=CC=C(Cl)CC2)C1=O)c1cc2ccccc2oc1=O` = 28.6 µM (inactive)

`Cc1nc(-c2ccccc2)cc2c1c(=O)oc1ccccc12` has a reported GI50 of > 100 µM (inactive)

Form: molecule = `COC(=O)C1=C(C)N(NC(=O)OC(C)(C)C)C(=O)C1=P(c1ccccc1)(c1ccccc1)c1ccccc1` ; GI50 = 69 µM (inactive)

The recorded GI50 for `CNC(=O)Nn1c(SC)nc2ccccc21` is > 100 µM (inactive)

---

System: A549
Assay: NCI tumour cell line growth inhibition, 48 h
The source made the active and inactive calls. Cut-off read from the data, not from the text of the source: active = GI50 up to about 1.1 µM and inactive = higher.
Hello, when you answer, please use one of the following outcomes: Y (active), N (inactive)

Per the records of this test, what outcome belongs to `c1ccc(CNCCCCNCCCNCc2ccccc2)cc1` ?
N

I would be grateful if you could indicate the recorded call for CC(=O)OC1COC(Nc2nc(N)n(C)c(=O)c2N=O)C(OC(C)=O)C1OC(C)=O (centres undefined) .
N

Name the outcome recorded for `C=CCN1C[C@H](C)N([C@H](c2ccc(C(=O)NC(CC)CC)cc2)c2cccc(OC)c2)C[C@H]1C` in the assay.
N

Name the outcome recorded for `CC(=O)c1c2c(cc3c1CC1(C3)Cc3cc4c(c(C(C)=O)c3C1)CCCC4)CCCC2` in the assay.
N

Which result was noted for this compound in the test: `Cc1ccc(/C=C2\Cc3cc(C)c(C)cc3C2=O)c(C(=O)O)c1`
N

Would you mind telling me which call this test gave `O=C(O)c1ccccc1C(=O)Nn1cnnc1` ?
N

Recorded test outcome, item NP(=O)(OCC1=CC(=O)c2ccccc2C1=O)N(CCBr)CCBr (centres undefined)
N

Give the logged outcome of this assay for the following compound: `COc1cc2ccc(/C=C\[N+](=O)[O-])cc2cc1OC`
N

Hi, sorry to bother you, what did the test record for `Cc1ccc(C)c(C(=N)c2ccccc2Cc2ccccc2)c1` ?
N

Please state the recorded outcome for this compound: `CNC(=O)Nn1c(SC)nc2ccccc21`
N

Outcome logged for `N=C(c1ccc(-c2cn3cc(C(=N)N4CCCC4)ccc3n2)cc1)N1CCCC1` in this assay:
N

What outcome does the record of this test show for `COC(=O)c1ccccc1NCc1cc(O)ccc1O` ?
N

Please indicate how the test categorized `O=C1c2cc(I)ccc2N2CCN=C2N1Cc1ccccc1` .
N

Outcome? `CC1(C)CCC2=C(O1)c1ccccc1/C(=N/c1ccc([N+](=O)[O-])cc1)C2=O`
N

I would be grateful if you could indicate the recorded call for `O=C1OCC/C1=C/c1ccc(/N=N/c2c(O)ccc3ccccc23)cc1` .
N

Could you please tell me the result logged for CCN(CC)CCCC(C)Nc1c2cc(OC)cc(C)c2nc2c(C)c(Cl)ccc12 (centres undefined) in this assay?
N

Check the results log: what was the call for CN1C/C(=C\c2cccs2)C2=NC(=S)NC(c3cccs3)C2C1 (centres undefined) ?
N

Test call for this compound, please: `CNCCCn1c2ccccc2c2c3c(c(-c4ccsc4)cc21)C(=O)NC3=O`
N

# outcome recorded in this test, key = `Cc1n[nH]c(=S)n1/N=C/c1ccc(-c2ccc(Cl)cc2)o1`
N

Entry `Nc1ccc(Oc2ccc(C3(c4ccc(Oc5ccc(N)cc5)cc4)C4CC5C6CC7CC5C3C(C7)C6C4)cc2)cc1` : call = ?
Y

Test call, this compound: `Cn1sc2ccccc2c1=S`
N

What did this assay record as the result for CC(=O)OCC1OC(n2c(C)c(C)c(C)c(C#N)c2=S)C(OC(C)=O)C(OC(C)=O)C1OC(C)=O (centres undefined) ?
N

Recorded test call requested for O/N=C1/C(=C/c2ccc(F)cc2)CCCC1C(NO)c1ccc(F)cc1 (centres undefined)
N

Per the records of this test, what outcome belongs to `CC(=O)OCc1cc2c(s1)C(=O)c1sccc1C2=O` ?
Y

Call for entry `COc1ccc2c(CC(=O)O)cc(=O)oc2c1` :
N

What did the test return for Cc1cccc2c1Oc1cc(Cl)ccc1C2NC(=O)CCN1CCOCC1 (centres undefined) ?
N

Recorded test call requested for O=C1C2CCN(CC2)C1CN1CCOCC1 (centres undefined)
N

Each compound tested received a call. Report the one for O=C1CC(c2cccc(Br)c2)n2cccc21 (centres undefined) .
N

Dear all, I need the recorded test outcome for `OCCNC1=Nc2ccc(Cl)cc2C(=S)N2CSC[C@@H]12` , thank you.
N

Hello, I am checking results. What call was entered for `COc1ccc2c(c1)[nH]c1c(/C=C/c3ccccc3)nccc12` ?
N

Outcome logged for `O=C(Nc1c(Cl)cc([N+](=O)[O-])cc1Cl)C(=O)C1C(=O)NC(=S)NC1=O` in this assay:
N

Could you please tell me the result logged for `ClCCCCCc1c2nc(c(CCCCCCl)c3ccc([nH]3)c(CCCCCCl)c3nc(c(CCCCCCl)c4ccc1[nH]4)C=C3)C=C2` in this assay?
N

What was the test verdict on `COc1cc(N2C(=O)C(=O)C3(CCCCC3)C2=O)cc(OC)c1OC` ?
N

What is the recorded call for this compound in the test? `Cc1ccc(-c2nc3c(C(=O)NCCN(C)C)cccc3[nH]2)cc1`
N

I'd appreciate the recorded outcome for `N=C(N)N/N=C(\c1ccc(Cl)cc1)C1CC1` from this test.
N

Called result for `O=C1NC(N2CCOCC2)=N/C1=C\c1ccccc1`
N

Outcome logged for CCCCCCCC(=O)OCC1OC(n2cc(F)c(=O)[nH]c2=O)C(N)C(OC(=O)CCCCCCC)C1O (centres undefined) in this assay:
N

Field: outcome | Entry: `N=C(N)NC(=N)Nc1ccccc1.Sc1nc2ccccc2s1`
N

Which result was noted for this compound in the test: Cc1cccc(C)c1NC(=O)CCCC(=O)C(C#N)c1ccccc1 (centres undefined)
N

For `O=[N+]([O-])C(Cl)=C/C(=C(\Cl)SCc1ccccc1)[N+](=O)[O-]` , which call appears in the assay record?
N

Please share the test call associated with `COC1=CC(=O)C2=C(C1=O)[C@H]1CC[C@]3(C)[C@@H](O)CC[C@H]3[C@@H]1CC2` .
N

Check the results log: what was the call for CCOC(=O)C(C)Sc1nnc(COc2ccccc2OC)n1-c1ccccc1 (centres undefined) ?
N

Please let me know the test result on file for O=c1[nH]c(=O)n(C2OC(CO)C(O)C2O)cc1/N=N/NCc1ccccc1 (centres undefined) .
N

For this compound, state the assay outcome: `C/C(=N\Nc1ncnc2ccccc12)c1ccccn1`
Y

---

System: IGROV-1
Assay: NCI tumour cell line growth inhibition, 48 h
Calls of active or inactive are those of the source. Rule as the data show it: active = GI50 up to about 1.1 µM and inactive = higher.
MEASUREMENT LABEL: GI50

GET /value?item= CC(=O)O[C@H]1CC[C@H]2[C@@H]3CCC4C(C)=NNC(=O)C4[C@H]3CC[C@]12C (stereo not given in full) &field=GI50 returns 27 µM (inactive)

Looking up `O=Cc1ccc(-c2ccc(S(=O)(=O)O)cc2)o1` , I see its GI50 listed as > 100 µM (inactive)

get_value(item= `N=C(N)N/N=C(\c1ccc(Cl)cc1)C1CC1` , readout=GI50) returns 16.2 µM (inactive)

Entry `CN(C)CC(CN(C)C)c1ccccn1` ; GI50 = > 100 µM (inactive)

Form: compound = CC#CC#C/C=C1/O[C@]2(CCC(OC(=O)CC(C)C)CO2)[C@@H]2O[C@H]12 (stereo not given in full) ; GI50 = 91.4 µM (inactive)

// recorded GI50 for `Oc1ccc(/N=C/c2ccc(/C=N/c3ccc(O)cc3)cc2)cc1` : 20 µM (inactive)

Record `Cc1cc(NC(=O)C(=O)Cc2nc3ccccc3s2)ccc1Cl` , field GI50: > 100 µM (inactive)

response.value for `c1ccc2c3ccn4ccc5c6ccccc6[nH]c5c4c-3nc2c1` (field: GI50) = 1.25 µM (inactive)

GI50 reading for `CCN(CC)CCOC(c1ccccc1)c1ccccc1.CCOC(=O)Nc1ccc(S(=O)(=O)OC)cc1.CCOC(=O)Nc1ccc(S(=O)(=O)OC)cc1.Nc1ccc(C(=O)O)c(O)c1` : > 100 µM (inactive)

# GI50 (compound: `CCOC(=O)/C(=C/c1ccccn1)C(=O)c1ccccc1` ) is 16.3 µM (inactive)
